Sourced from PubChem BioAssay (NCI)

As shown below, each of these molecules has a reported TGI value.
Tested on: OVCAR-4 ovarian
protocol-description: NCI tumour cell line growth inhibition, 384-well format

Worked cases, TGI given:
COc1cc2c(c(OC)n1)[C@]1(O)[C@H](O)[C@H](CN(C)C)[C@@H](c3ccccc3)[C@]1(c1ccc(C#N)cc1)O2; 43.4 nM
CC(C)S(=O)(=O)c1ccccc1Nc1nc(Nc2cccc(NC(=O)CN)c2)ncc1Cl; 2070 nM

Task item: Requested read-out: TGI. Entry: "CCn1c(CO)nn(-c2cc(O[C@@H](C)C(F)(F)F)c(C(=O)Nc3c(F)cccc3Cl)cc2F)c1=O"
Reply: > 100000 nM

Task item: Moving on to "COCCOc1cnc2ccn([C@H](C)c3nnc4c(F)cc(-c5cnn(C)c5)cn34)c(=O)c2c1"
Reply: > 100000 nM
